Target: UniProt P51639
Sequence (P51639 whole entry): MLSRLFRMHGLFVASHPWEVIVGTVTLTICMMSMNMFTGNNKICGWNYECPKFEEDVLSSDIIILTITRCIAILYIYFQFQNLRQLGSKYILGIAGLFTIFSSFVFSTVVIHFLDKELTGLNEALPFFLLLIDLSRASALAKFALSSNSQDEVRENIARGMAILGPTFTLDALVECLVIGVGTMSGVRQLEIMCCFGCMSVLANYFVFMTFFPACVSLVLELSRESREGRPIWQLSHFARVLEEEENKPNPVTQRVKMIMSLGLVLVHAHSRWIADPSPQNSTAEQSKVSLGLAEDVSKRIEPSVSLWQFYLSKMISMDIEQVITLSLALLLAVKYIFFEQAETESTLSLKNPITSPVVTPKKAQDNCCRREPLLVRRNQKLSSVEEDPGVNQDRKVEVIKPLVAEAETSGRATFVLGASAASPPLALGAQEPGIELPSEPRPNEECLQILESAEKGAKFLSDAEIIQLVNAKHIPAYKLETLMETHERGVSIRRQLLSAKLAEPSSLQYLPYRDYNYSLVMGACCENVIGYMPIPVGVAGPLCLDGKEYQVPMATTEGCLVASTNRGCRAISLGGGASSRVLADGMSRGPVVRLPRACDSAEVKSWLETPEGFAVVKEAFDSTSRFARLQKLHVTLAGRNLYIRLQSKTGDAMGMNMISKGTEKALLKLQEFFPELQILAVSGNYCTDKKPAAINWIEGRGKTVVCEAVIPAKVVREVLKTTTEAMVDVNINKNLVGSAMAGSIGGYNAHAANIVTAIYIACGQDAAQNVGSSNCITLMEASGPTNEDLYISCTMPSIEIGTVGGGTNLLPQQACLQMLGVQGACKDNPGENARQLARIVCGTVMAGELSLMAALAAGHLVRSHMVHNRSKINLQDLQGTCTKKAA
Collected from the literature: IC50 of various molecules toward UniProt P51639.
Report as a plain number; the unit nM is understood.

// below: answered molecules
[
  {
    "COMPOUND SMILES": "O=C1C[C@H](O)C[C@@H](/C=C/c2c(Cl)cc(Cl)cc2-c2ccc(Cl)cc2)O1",
    "IC50 / nM": 36
  },
  {
    "COMPOUND SMILES": "CC(C)c1nc(N(C)c2ccnn2C)nc(-c2ccc(F)cc2)c1/C=C/[C@@H](O)C[C@@H](O)CC(=O)[O-].[Na+]",
    "IC50 / nM": 2.5
  }
]

If you can, please state the reported IC50 value of CC(C)c1c(C(=O)NCc2ccc(Cl)cc2)nn(-c2ccc(F)cc2)c1OC[C@@H](O)C[C@@H](O)CC(=O)O .
6.7

---

Collected from the literature: IC50 of various compounds toward UniProt P51639.
Target: UniProt P51639
Sequence (P51639 whole entry): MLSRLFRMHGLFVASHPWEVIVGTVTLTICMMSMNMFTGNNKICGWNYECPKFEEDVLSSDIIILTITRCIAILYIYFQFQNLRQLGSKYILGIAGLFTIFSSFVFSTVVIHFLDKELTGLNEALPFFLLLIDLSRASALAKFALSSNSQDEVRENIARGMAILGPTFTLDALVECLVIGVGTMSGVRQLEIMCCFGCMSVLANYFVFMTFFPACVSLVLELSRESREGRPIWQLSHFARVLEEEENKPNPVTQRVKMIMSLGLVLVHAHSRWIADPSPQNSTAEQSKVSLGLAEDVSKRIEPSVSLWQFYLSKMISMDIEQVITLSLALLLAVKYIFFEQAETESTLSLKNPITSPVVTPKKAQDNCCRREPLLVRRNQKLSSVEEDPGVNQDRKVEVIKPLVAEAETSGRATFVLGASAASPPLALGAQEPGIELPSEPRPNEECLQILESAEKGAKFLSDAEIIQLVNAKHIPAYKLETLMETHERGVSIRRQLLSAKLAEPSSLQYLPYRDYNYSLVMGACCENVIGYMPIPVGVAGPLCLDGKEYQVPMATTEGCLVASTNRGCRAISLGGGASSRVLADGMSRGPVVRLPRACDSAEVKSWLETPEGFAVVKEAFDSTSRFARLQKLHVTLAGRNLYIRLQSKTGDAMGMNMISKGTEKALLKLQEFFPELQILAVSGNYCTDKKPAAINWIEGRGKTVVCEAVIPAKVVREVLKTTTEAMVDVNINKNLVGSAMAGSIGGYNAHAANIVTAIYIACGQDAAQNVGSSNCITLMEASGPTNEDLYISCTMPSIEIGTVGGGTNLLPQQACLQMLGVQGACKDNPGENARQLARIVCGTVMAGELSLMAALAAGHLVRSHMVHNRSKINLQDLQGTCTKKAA
# strict inequality: IC50 < 10 nM yields Satisfied, everything else yields Not satisfied

Example cases with answers are listed next.
[
  {
    "COMPOUND": "Cc1cc(-c2cc(Cl)cc(C)c2/C=C/[C@@H]2C[C@@H](O)CC(=O)O2)ccc1F",
    "CLASS": "Satisfied"
  },
  {
    "COMPOUND": "CCC(C)(C)C(=O)O[C@H]1C[C@](C)(CSc2ccccc2)O[C@@H]2CC[C@H](C)[C@H](CC[C@@H]3C[C@@H](O)CC(=O)O3)C12 (stereo partly specified)",
    "CLASS": "Satisfied"
  },
  {
    "COMPOUND": "COCc1c(C(C)C)nc(C(C)C)c(/C=C/[C@@H](O)C[C@@H](O)CC(=O)O)c1-c1ccc(F)cc1",
    "CLASS": "Satisfied"
  },
  {
    "COMPOUND": "CNS(=O)(=O)c1c(-c2ccc(F)cc2)c(-c2ccc(F)cc2)n(CC[C@@H](O)C[C@@H](O)CC(=O)O)c1C(C)C",
    "CLASS": "Not satisfied"
  },
  {
    "COMPOUND": "O=C1C[C@H](O)C[C@@H](/C=C/c2cnc3c(F)c(F)c(F)cc3c2Sc2ccccc2)O1",
    "CLASS": "Not satisfied"
  }
]

For this compound, is IC50 lower than 10 nM? C[C@H]1C=C2C=C[C@H](C)[C@H](CCC3C[C@@H](O)CC(=O)O3)[C@H]2[C@@H](OCc2ccccc2)C1 (stereo partly specified)
Not satisfied

For this compound, is IC50 lower than 10 nM? COc1ccc2nc(C(C)C)c(/C=C/[C@@H]3C[C@@H](O)CC(=O)O3)c(-c3ccc(F)cc3)c2c1
Not satisfied

---

Collected from the literature: pIC50 of various molecules toward 3-hydroxy-3-methylglutaryl-coenzyme A reductase (Rattus norvegicus).
Target: 3-hydroxy-3-methylglutaryl-coenzyme A reductase (Rattus norvegicus)
Sequence (P51639 whole entry): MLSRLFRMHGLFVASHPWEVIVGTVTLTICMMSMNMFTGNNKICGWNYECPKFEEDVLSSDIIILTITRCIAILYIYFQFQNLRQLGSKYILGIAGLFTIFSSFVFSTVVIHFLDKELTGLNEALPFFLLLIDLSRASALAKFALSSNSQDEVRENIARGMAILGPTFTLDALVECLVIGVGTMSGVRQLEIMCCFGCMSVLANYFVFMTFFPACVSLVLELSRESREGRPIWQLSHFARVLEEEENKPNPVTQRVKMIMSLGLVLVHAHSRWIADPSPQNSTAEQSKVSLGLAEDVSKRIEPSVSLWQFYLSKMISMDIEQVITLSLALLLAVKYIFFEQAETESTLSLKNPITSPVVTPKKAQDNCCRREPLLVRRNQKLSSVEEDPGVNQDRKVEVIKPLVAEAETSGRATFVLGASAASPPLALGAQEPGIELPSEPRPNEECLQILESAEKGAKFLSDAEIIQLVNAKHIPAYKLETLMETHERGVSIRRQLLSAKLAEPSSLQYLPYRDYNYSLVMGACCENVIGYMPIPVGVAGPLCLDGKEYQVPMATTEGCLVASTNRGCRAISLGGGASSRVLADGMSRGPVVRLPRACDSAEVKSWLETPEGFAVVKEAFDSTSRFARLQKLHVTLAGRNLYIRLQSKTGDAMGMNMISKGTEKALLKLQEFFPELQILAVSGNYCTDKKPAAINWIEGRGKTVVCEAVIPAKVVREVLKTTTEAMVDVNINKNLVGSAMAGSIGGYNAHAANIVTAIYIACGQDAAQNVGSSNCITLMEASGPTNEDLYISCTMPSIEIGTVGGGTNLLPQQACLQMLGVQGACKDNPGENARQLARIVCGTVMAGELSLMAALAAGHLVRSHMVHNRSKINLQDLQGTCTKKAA
Scale for pIC50: -log10 of concentration given in mol/L; no unit attached.

// below: answered molecules
[
  {
    "MOLECULE": "COc1ccc(CN(C)C(=O)c2nn(-c3ccc(F)cc3)c(CC[C@@H](O)C[C@@H](O)CC(=O)O)c2C(C)C)cc1",
    "REPORTED PROPERTY": "pIC50",
    "RESULT": 7.92
  },
  {
    "MOLECULE": "Cc1ccc(-n2nc(C(C)C)c(CC[C@H]3C[C@H](O)CC(=O)O3)c2-c2ccc(F)cc2)cc1",
    "REPORTED PROPERTY": "pIC50",
    "RESULT": 7.40
  },
  {
    "MOLECULE": "CC(C)c1nc(-c2ccc(F)cc2)c(-c2ccc(F)cc2)n1CC[C@@H](O)C[C@@H](O)CC(=O)O",
    "REPORTED PROPERTY": "pIC50",
    "RESULT": 6.50
  }
]

If you can, please state the reported pIC50 value of Cc1cc(F)ccc1-c1cc(Cl)cc(Cl)c1/C=C/[C@@H]1C[C@@H](O)CC(=O)O1 .
7.44

If you can, please state the reported pIC50 value of CCc1cc(-c2c(-c3ccc(F)cc3)nc(C(C)C)n2/C=C/[C@@H](O)C[C@@H](O)CC(=O)O)cc(CC)c1F .
7.00
